We begin with a simple list: items and their reported IC50.
Molecular target: SCD5 (Homo sapiens)
Construct: host or cells: S. cerevisiae ole1Δ strain (W303 pdr1Δ pdr3Δ background), plasmid pRS316 with TDH3 promoter and CYC1 terminator
Sequence (Q86SK9 whole entry): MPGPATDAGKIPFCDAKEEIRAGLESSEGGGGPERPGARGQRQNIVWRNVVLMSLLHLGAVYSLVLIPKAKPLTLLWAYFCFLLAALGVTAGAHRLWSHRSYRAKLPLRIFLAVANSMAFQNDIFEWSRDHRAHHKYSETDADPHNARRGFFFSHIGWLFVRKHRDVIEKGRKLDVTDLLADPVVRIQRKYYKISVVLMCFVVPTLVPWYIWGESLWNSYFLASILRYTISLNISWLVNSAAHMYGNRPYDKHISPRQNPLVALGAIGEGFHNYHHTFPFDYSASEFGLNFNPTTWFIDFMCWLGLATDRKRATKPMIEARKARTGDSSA
Assay: Growth inhibition of humanized yeast strain expressing SCD5 as sole desaturase
Assay type: cell-based
Conditions: growth inhibition of humanized yeast strain expressing human SCD5
Give the quantity in µM, number only.

Here's what some known entries look like.
1) CC(C)(C)OC(=O)N1CCC(c2nc(-c3ccc4cnn(CC5COC5)c4c3)no2)CC1; 1.54
2) Cc1nn(C)c2cc(-c3noc(C4CCN(C(=O)CN)CC4(F)F)n3)ccc12 (centres unmarked); 5.01
3) O=C(c1nccs1)N1CCN(c2nc(-c3ccc4cnn(C5COC5)c4c3)no2)CC1; 1.43

Readout IC50 for "O=C(c1sccc1Cl)N1CCC(c2noc(-c3ccc4cnn(C5COC5)c4c3)n2)CC1" , test system SCD5 (Homo sapiens), was 0.026
